- test_protocol: Mouse oral pharmacokinetics
- Assay type: in vivo, BALB/c mice
- condition_notes: BALB/c, mouse, plasma, po, 2 mg/kg, mice, single oral dose 2 mg/kg
reported_endpoint: Cmax (ng/mL)
Supply the numeric figure in ng/mL, leaving out any unit text.

Looking up CN1C(=O)Cc2ccc(F)c(CCNCCC3CN(c4ccc5c(n4)NC(=O)CO5)C(=O)O3)c21 (single isomer, unassigned) , I see its Cmax listed as 6

###

# maps each entry to its IC50
- tested_on: E. coli DNA gyrase (Escherichia coli, UniProt P0AES4+P0AES6)
- test_protocol: biochemical
- condition_notes: supercoiling assay
Supply the numeric figure in nM, leaving out any unit text.

CN1C(=O)Cc2ccc(F)c(CNCCC3CN(c4ccc5c(n4)NC(=O)CO5)C(=O)O3)c21 (stereo not shown) [Example 2] | 360
CN1C(=O)Cc2ccc(F)c(CNCCCC3CN(c4ccc5c(n4)NC(=O)CO5)C(=O)O3)c21 (single isomer, unassigned) [Example 9] | 89
CCN1C(=O)Cc2ccc(F)c(CNCCCC3CN(c4ccc5c(n4)NC(=O)CO5)C(=O)O3)c21 (stereo not shown) [Example 8] | 54

Looking up CN1C(=O)Cc2ccc(F)c(CNCCCC3CN(c4ccc5c(c4)NC(=O)CO5)C(=O)O3)c21 (stereo not shown) [Example 12] , I see its IC50 listed as 89

###

- test_protocol: Mouse oral pharmacokinetics
- Format: in vivo, BALB/c mice
- condition_notes: BALB/c, mouse, plasma, po, 100 mg/kg, mice, single oral dose 100 mg/kg; read-out: AUC0-∞
reported_endpoint: AUC(0-inf) (ng·h/mL)
Supply the numeric figure in ng·h/mL, leaving out any unit text.

Looking up CN1C(=O)Cc2ccc(F)c(CCNCCC3CN(c4ccc5c(n4)NC(=O)CO5)C(=O)O3)c21 (single isomer, unassigned) , I see its AUC(0-inf) listed as 4820

###

- test_protocol: Mouse oral pharmacokinetics
- Assay type: in vivo, BALB/c mice
- condition_notes: BALB/c, mouse, plasma; mice, single oral dose 2 mg/kg
reported_endpoint: AUC(0-t) (ng·h/mL)
Supply the numeric figure in ng·h/mL, leaving out any unit text.

Looking up CN1C(=O)Cc2ccc(F)c(CCNCCC3CN(c4ccc5c(n4)NC(=O)CO5)C(=O)O3)c21 (single isomer, unassigned) , I see its AUC(0-t) listed as 70

###

- test_protocol: Mouse intravenous pharmacokinetics
- Assay type: in vivo, BALB/c mice
- condition_notes: BALB/c, mouse, plasma, iv, 2 mg/kg, BALB/c mice, single i.v. dose of 2.0 mg/kg; read-out: volume of distribution at steady state
reported_endpoint: Vd

Looking up CN1C(=O)Cc2ccc(F)c(CCNCCC3CN(c4ccc5c(n4)NC(=O)CO5)C(=O)O3)c21 (single isomer, unassigned) , I see its Vd listed as 13.3 L/kg

###

- System: E. coli ATCC 25922
- test_protocol: Minimum Inhibitory Concentration (MIC) in LB media
- Assay type: cell-based, Escherichia coli
- condition_notes: Escherichia coli, ATCC25922, LB Media
Group membership follows MIC per the scheme bin 1 = under 0.2 µg/mL, bin 2 = from 0.2 µg/mL up to 1 µg/mL, bin 3 = 1 µg/mL and over

Consider the following illustrative entries.
CN1C(=O)Cc2ccc(F)c(CNCCCC3CN(c4ccc5c(n4)NC(=O)CO5)C(=O)O3)c21 (racemic) [Example 6] | bin 2
CN1C(=O)Cc2ccc(F)c(CNCCC3CN(c4ccc5c(c4)NC(=O)CO5)C(=O)O3)c21 (stereo not shown) | bin 3
CN1C(=O)Cc2cccc(CNCCC3CN(c4ccc5c(n4)NC(=O)CO5)C(=O)O3)c21 (stereo not shown) | bin 3

Kindly state the category for this molecule: CN1C(=O)Cc2ccc(F)c(CNCCCC3CN(c4ccc5c(c4)NC(=O)CO5)C(=O)O3)c21 (stereo not shown) bin 2

Kindly state the category for this molecule: Cn1c(=O)oc2ccc(F)c(CCNCCC3CN(c4ccc5c(n4)NC(=O)CO5)C(=O)O3)c21 (stereo not shown) bin 2

Kindly state the category for this molecule: CCN1C(=O)Cc2ccc(F)c(CNCCCC3CN(c4ccc5c(n4)NC(=O)CO5)C(=O)O3)c21 (stereo not shown) bin 1

Kindly state the category for this molecule: CN1C(=O)Cc2ccc(F)c(CNCCC3CN(c4ccc5c(n4)NC(=O)CO5)C(=O)O3)c21 (stereo not shown) bin 3

Kindly state the category for this molecule: CCN1C(=O)Cc2ccc(F)c(CNCCC3CN(c4ccc5c(n4)NC(=O)CO5)C(=O)O3)c21 (stereo not shown) bin 3

Kindly state the category for this molecule: CN1C(=O)Cc2ccc(F)c(CCNCCC3CN(c4ccc5c(n4)NC(=O)CO5)C(=O)O3)c21 (single isomer, unassigned) [Example 13] bin 1
